- System name: UniProt:P00338
- Assay name: human LDHA primary biochemical assay (resazurin/diaphorase coupled, fluorescence)
- Experimental setup: read-out: Inhibitory activity IC50
Where a name gives a salt, the structure may show the parent alone.
Listing: IC50 of selected compounds

{"Compound": "Cc1ccc(-c2cccc(-c3c(Cc4ccc([S+](N)(=O)[O-])cc4)c(CC4CC4)nn3-c3nc(C(=O)O)cs3)c2)cc1", "Measurement": "1000 to 57000 nM"}
{"Compound": "CC(C)c1nn(-c2nc(C(=O)O)cs2)c(-c2ccccc2)c1Cc1ccc(S(N)(=O)=O)cc1", "Measurement": "1000 to 57000 nM"}
{"Compound": "CC(C)c1c(Cc2ccc(S(N)(=O)=O)cc2)c(-c2ccccc2)nn1-c1nc(C(=O)O)cs1", "Measurement": "100 to 1000 nM"}
{"Compound": "CCOC(=O)c1csc(-n2nc(-c3cccc(-c4ccccc4)c3)c(Cc3ccc(S(N)(=O)=O)cc3)c2N)n1", "Measurement": "1000 to 57000 nM"}
{"Compound": "NC(=O)c1csc(-n2nc(-c3cccc(-c4ccccc4)c3)c(Cc3ccc(S(N)(=O)=O)cc3)c2O)n1", "Measurement": "> 57000 nM"}

Let me know recorded IC50 for N[S+](=O)([O-])c1ccc(Cc2c(CC3CC3)nn(-c3nc(C(=O)O)cs3)c2-c2ccc(F)c(-c3ccc(C4CC4)cc3)c2)cc1 , thanks.
1000 to 57000 nM

Hello, please tell me recorded IC50 for this one: O=C(O)c1csc(-n2nc(-c3ccc(F)cc3F)cc2O)n1
> 57000 nM

Using the record for CCOC(=O)c1csc(-n2cc(Nc3ccc(S(N)(=O)=O)cc3)c(-c3cccc(-c4ccccc4)c3)n2)n1 , state its measured IC50.
1000 to 57000 nM

Please report IC50 for the following compound: Cc1ccc(-c2cc(-c3nn(-c4nc(C(=O)O)cs4)c(CC4CC4)c3Cc3ccc(S(N)(=O)=O)c(F)c3)ccc2F)s1
< 100 nM

Give the reported value of IC50 for this record: N[S+](=O)([O-])c1ccc(Cc2c(CC3CC3)nn(-c3nc(C(=O)O)cs3)c2-c2ccc(F)c(Br)c2)cc1
1000 to 57000 nM

Supply measured IC50 of NS(=O)(=O)c1ccc(Cc2c(-c3ccc(F)c(-c4cccs4)c3)nn(-c3nc(C(=O)O)cs3)c2CC2CC2)cc1F [Compound 234, TFA] in your reply.
< 100 nM

---

- System name: Human LDHA (Homo sapiens (Human))
- Assay name: human LDHA primary biochemical assay (resazurin/diaphorase coupled, fluorescence)
- Experimental setup: LDHA inhibitory activity, activity level based on IC50 (Table 7)
pIC50: −log10 of the molar value.
In this section, each of the molecules is paired with its reported pIC50.

Worked cases, pIC50 given:
{"Molecule": "C/C=C(\\C)c1cc(-c2nn(-c3nc(C(=O)O)cs3)c(CC3CC3)c2Cc2ccc(S(N)(=O)=O)c(F)c2)ccc1F [Compound 450]", "pIC50": "> 7.00"}
{"Molecule": "Cc1ccc(-c2nn(-c3nc(C(=O)O)cs3)cc2Cc2ccc(S(N)(=O)=O)cc2)cc1-c1ccc(F)c(F)c1 [Compound 492]", "pIC50": "6.00 to 7.00"}
{"Molecule": "COc1cccc(-c2cccc(-c3c(Cc4ccc(S(N)(=O)=O)cc4F)c(C4CC4)nn3-c3nc(C(=O)O)cs3)c2)c1 [Compound 360]", "pIC50": "4.24 to 6.00"}
{"Molecule": "NS(=O)(=O)c1ccc(Cc2c(-c3cc(F)cc(-c4ccc(F)cc4)c3)nn(-c3nc(C(=O)O)cs3)c2CC2CC2)cc1 [Compound 479]", "pIC50": "> 7.00"}
{"Molecule": "NS(=O)(=O)c1ccc(Cc2cn(-c3nc(C(=O)O)cs3)nc2-c2ccc(F)c(-c3cc(Cl)cc(Cl)c3)c2)cc1 [Compound 514]", "pIC50": "4.24 to 6.00"}

Continue with the next molecule.
Find the measured pIC50 of Cc1ccc(-c2nn(-c3nc(C(=O)O)cs3)c(C3CC3)c2Cc2ccc(S(N)(=O)=O)cc2)cc1-c1cccnc1 [Compound 499] and report it.
> 7.00
